# systemUnderTest: human ether-à-go-go-related gene (hERG) potassium channel (human);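 note: peak tail current of the secondary pulse compared with the same well before compound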
# Sequence (Q12809 whole entry, looked up): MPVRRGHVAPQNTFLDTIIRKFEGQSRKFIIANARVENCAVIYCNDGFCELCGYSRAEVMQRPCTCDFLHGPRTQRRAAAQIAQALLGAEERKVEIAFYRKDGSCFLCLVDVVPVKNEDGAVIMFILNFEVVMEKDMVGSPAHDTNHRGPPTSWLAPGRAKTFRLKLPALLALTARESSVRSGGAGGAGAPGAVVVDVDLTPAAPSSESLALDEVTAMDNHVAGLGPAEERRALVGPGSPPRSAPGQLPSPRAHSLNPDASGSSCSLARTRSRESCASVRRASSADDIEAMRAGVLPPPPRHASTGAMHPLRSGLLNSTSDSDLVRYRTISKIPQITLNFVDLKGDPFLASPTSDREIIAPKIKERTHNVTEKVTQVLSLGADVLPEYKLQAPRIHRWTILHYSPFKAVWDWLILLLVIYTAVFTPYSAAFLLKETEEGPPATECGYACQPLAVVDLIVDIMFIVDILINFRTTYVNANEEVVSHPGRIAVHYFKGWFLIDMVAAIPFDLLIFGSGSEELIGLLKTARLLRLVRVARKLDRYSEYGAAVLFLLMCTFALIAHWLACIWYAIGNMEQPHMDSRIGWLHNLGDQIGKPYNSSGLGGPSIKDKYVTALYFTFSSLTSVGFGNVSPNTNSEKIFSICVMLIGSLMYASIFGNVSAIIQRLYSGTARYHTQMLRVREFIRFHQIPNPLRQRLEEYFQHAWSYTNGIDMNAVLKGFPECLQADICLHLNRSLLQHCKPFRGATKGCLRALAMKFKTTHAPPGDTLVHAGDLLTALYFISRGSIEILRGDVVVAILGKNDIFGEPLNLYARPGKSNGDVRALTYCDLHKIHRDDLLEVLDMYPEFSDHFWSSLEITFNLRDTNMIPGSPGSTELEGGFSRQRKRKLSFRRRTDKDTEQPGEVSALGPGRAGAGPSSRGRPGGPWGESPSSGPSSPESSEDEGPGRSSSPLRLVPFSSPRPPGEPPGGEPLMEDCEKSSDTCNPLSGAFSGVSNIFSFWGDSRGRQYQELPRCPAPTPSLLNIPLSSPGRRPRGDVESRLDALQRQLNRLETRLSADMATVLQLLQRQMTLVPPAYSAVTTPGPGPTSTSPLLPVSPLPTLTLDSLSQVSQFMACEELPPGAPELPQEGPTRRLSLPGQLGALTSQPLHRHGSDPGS
# experimentDescription: primary screen, population patch clamp on CHO cells stably expressing hERG; higher = less effect of the substance
Screen size: about 310,000 compounds; about 14,000 (4.5%) showed an effect of 50% or more. Effects have a minus sign here. Shown is part of a subset that was picked to be rich in strong results.
valueType: hERG current change (%, negative = inhibition) at 10uM (%)

>  <compound>
O=C(NCC1CCCO1)c1c(O)c2cccc3c2n(c1=O)CC3 (centres unmarked)

>  <unitTag>
%

>  <valueMeasured>
10.4

$$$$
>  <compound>
Cc1ccc(CN(C(=O)Cn2nnc3ccccc32)C(C(=O)NCc2ccco2)c2cccs2)cc1 (centres unmarked)

>  <unitTag>
%

>  <valueMeasured>
-23.1

$$$$
>  <compound>
Cc1nnc(SCC(=O)N2CCN(S(=O)(=O)c3ccc(Cl)cc3)CC2)n(N)c1=O

>  <unitTag>
%

>  <valueMeasured>
-19

$$$$
>  <compound>
CCOC(=O)c1cc(C(=O)Nc2sc3c(c2C#N)CCCC3)nn1C

>  <unitTag>
%

>  <valueMeasured>
12.4

$$$$
>  <compound>
O=C(c1noc2c1CCCC2)N1CCCCC1

>  <unitTag>
%

>  <valueMeasured>
-0.65

$$$$
>  <compound>
CCN(CC)S(=O)(=O)c1ccc(N2CCCC2)c(NC(=O)CC(C)(C)C)c1

>  <unitTag>
%

>  <valueMeasured>
-2.34

$$$$
>  <compound>
NN/C(=C\[N+](=O)[O-])Nc1ccc(Cl)cc1

>  <unitTag>
%

>  <valueMeasured>
13.6

$$$$
>  <compound>
COc1cc(NC(=S)NCc2cccnc2)c(OC)cc1Cl

>  <unitTag>
%

>  <valueMeasured>
-27.9

$$$$
>  <compound>
CCn1c(SCC(=O)Nc2c(C#N)cnn2-c2ccccc2)nnc1-c1cccs1

>  <unitTag>
%

>  <valueMeasured>
-13.6

$$$$
>  <compound>
O=C(Nc1ccc(N2CCN(C(=O)c3cccs3)CC2)cc1)c1ccc([N+](=O)[O-])o1

>  <unitTag>
%

>  <valueMeasured>
-25.5

$$$$
>  <compound>
COc1ccccc1CN(C(=O)CNC(=O)c1ccco1)C(C(=O)NCC1CCCO1)c1ccccc1 (centres unmarked)

>  <unitTag>
%

>  <valueMeasured>
10

$$$$
>  <compound>
Cn1cnnc1SCc1ccc(C(=O)N/N=C/c2cccs2)cc1

>  <unitTag>
%

>  <valueMeasured>
4.87

$$$$
>  <compound>
CCc1ccc(NC2=NCC(c3ccccc3)S2)cc1 (centres unmarked)

>  <unitTag>
%

>  <valueMeasured>
-17.5

$$$$
>  <compound>
N#Cc1ccccc1S(=O)(=O)N1CCN(CC(=O)NCC2(N3CCOCC3)CCCCC2)CC1

>  <unitTag>
%

>  <valueMeasured>
-27.3

$$$$
>  <compound>
O=C(COC(=O)[C@@H]1CCCN1S(=O)(=O)c1ccc(Cl)cc1)NC1CCS(=O)(=O)C1 (some centres unmarked)

>  <unitTag>
%

>  <valueMeasured>
-14.7

$$$$
>  <compound>
Cc1cccc(C(=O)NNS(=O)(=O)c2ccccc2[N+](=O)[O-])c1

>  <unitTag>
%

>  <valueMeasured>
1.16

$$$$
>  <compound>
CCOc1ccc(N(CC(=O)Nc2c(C)n(C)n(-c3ccccc3)c2=O)S(=O)(=O)c2ccccc2)cc1

>  <unitTag>
%

>  <valueMeasured>
-55.2

$$$$
>  <compound>
c1ccc(Cc2noc(CN3CCN(CCOc4ccccc4)CC3)n2)cc1

>  <unitTag>
%

>  <valueMeasured>
-40.9

$$$$
>  <compound>
Nn1c(SCC(=O)Nc2ccccc2F)nnc1-c1cccs1

>  <unitTag>
%

>  <valueMeasured>
-65.7

$$$$
>  <compound>
Cc1ccc(S(=O)(=O)N2CCN(S(C)(=O)=O)C2c2ccccc2)cc1 (centres unmarked)

>  <unitTag>
%

>  <valueMeasured>
-37.2

$$$$
>  <compound>
CCn1c(SCC(=O)Nc2ccc(C(=O)OC)cc2)nnc1-c1cccs1

>  <unitTag>
%

>  <valueMeasured>
-10.7

$$$$
>  <compound>
C(=C\c1ccccc1)/CN1CCN(Cc2nc(Cc3ccccc3)no2)CC1

>  <unitTag>
%

>  <valueMeasured>
-65.1

$$$$
>  <compound>
CCC(C)NC(=O)c1ccc(CSCc2ccc(Cl)cc2)o1 (centres unmarked)

>  <unitTag>
%

>  <valueMeasured>
-38.9

$$$$

Values compiled from paper PMC4336329.
